- Target Desc: G/T mismatch-specific thymine DNA glycosylase (Homo sapiens);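 note: human TDG cleavage of quenched duplex DNA oligonucleotides coupled to APE1, strand release read as fluorescence at 594 nm, inhibition of TDG activity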
- Condition Label: Compound Concentration 10.0 uM, Hit No
- Description: Inhibition of TDG by quantifying inhibition of TDG-mediated cleavage and dissociation of quenched duplex DNA oligonucleotides, measured as fluorescence at 594 nm. To generate a functional strand incision and increase turn-over this assay is coupled to APE1.
Please enter fulfilled where inhibition is greater than or equal to 40%, and not fulfilled where it is lower.

Molecule: C[C@H](CO)Nc1nc(SCc2cccc(Cl)c2F)nc2[nH]c(=O)sc12
Classification: not fulfilled
--
Molecule: Cc1nc(-c2ccc(C(F)(F)F)cc2)sc1C(=O)NCc1ccc(OC(C)(C)C(=O)O)cc1
Classification: fulfilled
--
Molecule: CS(=O)(=O)Nc1c(O)ccc2c1CCCC2C1=NCCN1 (stereo unspecified)
Classification: not fulfilled
--
Molecule: O=C(NNS(=O)(=O)c1ccccc1F)c1cc(F)cc(-c2ccccn2)c1
Classification: fulfilled
--
Molecule: COc1ncc(F)cc1CNc1ccc(Cc2c[nH]c3ncc(C)cc23)c(F)n1
Classification: not fulfilled
--
Molecule: COc1ccccc1N1CCN(CCCCNC(=O)c2ccc3ccccc3c2)CC1
Classification: not fulfilled
